species: Rattus norvegicus; test: Open TG-GATES - Regimen: Single; format: toxicity, organism-based, Sprague-Dawley; parameters: regimen Single, gender Male, age 6 weeks; details: in vivo, po, 0 mg/kg, 6 h, tissue Plasma, route gavage, dose level Control
Consider the following molecules; for each one, report its TBIL.
Express your answer in mg/dL, writing the number without its unit.

Query block: Which TBIL value is on record for O=C(O)c1ccccc1Nc1ccccc1 [FENAMIC ACID] ?
Result block: 0.054

Query block: If you can, please state the reported TBIL value of COc1cc2ncnc(Nc3ccc(F)c(Cl)c3)c2cc1OCCCN1CCOCC1 [GEFITINIB] .
Result block: 0.018

Query block: Data request, read-out TBIL, for CC(=O)[C@@]1(O)CC[C@H]2[C@@H]3C=C(Cl)C4=CC(=O)CC[C@]4(C)[C@H]3CC[C@@]21C [CHLORMADINONE]
Result block: 0.022

Query block: # input molecule: CN(C/C=C/C#CC(C)(C)C)Cc1cccc2ccccc12 [TERBINAFINE] ; wanted: its TBIL
Result block: 0.1

Query block: // TBIL lookup, key: CN(CCOc1ccc(CC2SC(=O)NC2=O)cc1)c1ccccn1.O=C(O)/C=C\C(=O)O (stereo not given) [ROSIGLITAZONE MALEATE]
Result block: 0.05

---

species: Rattus norvegicus; test: Open TG-GATES - Regimen: Single; assay type: toxicity, organism-based, Sprague-Dawley; parameters: regimen Single, gender Male, age 6 weeks; conditions: in vivo, po, 0 mg/kg, 6 h, tissue Plasma, route gavage, dose level Control
outcome.measure: Na (meq/L)
Respond numerically; units are meq/L and should not be typed.

Query block: Any idea what its Na is? The compound is CN(CCOc1ccc(CC2SC(=O)NC2=O)cc1)c1ccccn1.O=C(O)/C=C\C(=O)O (centres undefined) [ROSIGLITAZONE MALEATE]
Result block: 138.6

Query block: Which measured Na value corresponds to CC(=O)[C@@]1(O)CC[C@H]2[C@@H]3C=C(Cl)C4=CC(=O)CC[C@]4(C)[C@H]3CC[C@@]21C ?
Result block: 141.2

Query block: # Na lookup, item O=c1ccc2ccccc2o1
Result block: 139.4

Query block: Look up Na for this compound: COc1ccc([C@@H]2Sc3ccccc3N(CCN(C)C)C(=O)[C@@H]2OC(C)=O)cc1
Result block: 143

---

Exercise: state measured KIDNEY_TOTAL for each of the molecules provided.
species: Rattus norvegicus; experiment: Open TG-GATES - Regimen: Daily Repeat; assay type: toxicity, organism-based, Sprague-Dawley; set-up: regimen Daily Repeat, gender Male, age 6 weeks; details: in vivo, po, 300 mg/kg, […], tissue Kidney, route gavage, dose level Middle, time 7 day
A number alone suffices; assume g.

Query block: Endpoint output: KIDNEY_TOTAL of CCCCNC(=O)NS(=O)(=O)c1ccc(C)cc1 [TOLBUTAMIDE] . Value?
Result block: 2.2

Query block: Reported KIDNEY_TOTAL, molecule O=C(O)c1ccccc1Nc1ccccc1 : ____
Result block: 2.5

Query block: Look up KIDNEY_TOTAL for this molecule: CC(S)C(=O)NCC(=O)O (centres undefined)
Result block: 2.2

Query block: I have this molecule here, CC(=O)[C@@]1(O)CC[C@H]2[C@@H]3C=C(Cl)C4=CC(=O)CC[C@]4(C)[C@H]3CC[C@@]21C , and I need its recorded KIDNEY_TOTAL.
Result block: 2.1
